- assay: MAD study in healthy volunteers: whole blood and plasma PK
- Type: in vivo, human
- assay_setup: human; HV MAD Day 14, 50 mg QD maintenance; plasma
reported_endpoint: Cmax

Query: Any idea what Cmax was measured for O=Cc1c(O)cccc1OC[C@@H]1COCCN1C(=O)c1cccnc1CCO [Compound I] ?
Response: 1990 ng/mL

---

- assay: SAD study in healthy volunteers: PK in plasma, whole blood, red blood cells
- Assay type: in vivo, human
- assay_setup: human; HV single oral 100 mg (Cohort 2); red blood cells (calculated conc.); median
- Procedure: To evaluate the safety and tolerability of single ascending doses of Compound I, 48 healthy volunteers (42 in the fasted state and 6 in the fed state) aged 18 to 55 years old were administered single ascending doses (50 mg to 2200 mg) of Compound I, while 16 healthy volunteers (14 in the fasted state and 2 in the fed state) aged 18 to 55 years old were administered placebo in a double blind, randomized, sequential manner. […]
reported_endpoint: Tmax (h)
A number alone suffices; assume h.

Query: Please report the recorded Tmax for O=Cc1c(O)cccc1OC[C@@H]1COCCN1C(=O)c1cccnc1CCO [Compound I] .
Response: 24

---

- assay: SAD study in healthy volunteers: PK in plasma, whole blood, red blood cells
- Assay type: in vivo, human
- assay_setup: human; HV single oral 50 mg (Cohort 1); red blood cells (calculated conc.); geometric mean
reported_endpoint: AUC(0-inf) (µg·h/mL)
// note: answer is a bare numeric in µg·h/mL

Query: Consider the compound shown here: O=Cc1c(O)cccc1OC[C@@H]1COCCN1C(=O)c1cccnc1CCO What is its recorded AUC(0-inf)?
Response: 18100

---

- assay: SAD study in healthy volunteers: PK in plasma, whole blood, red blood cells
- Format: in vivo, human
- assay_setup: human, plasma, po, 1400 mg, HV single oral 1400 mg (Cohort 7); geometric mean
reported_endpoint: Cmax (µg/mL)
// return numeric value only (unit: µg/mL, not printed)

Query: # query: Cmax of entry O=Cc1c(O)cccc1OC[C@@H]1COCCN1C(=O)c1cccnc1CCO [Compound I]
Response: 7.78

---

- assay: SAD study in healthy volunteers: PK in plasma, whole blood, red blood cells
- Type: in vivo, human
- assay_setup: human; HV single 100 mg; whole blood; median
reported_endpoint: Tmax

Query: GET /values?readout=Tmax&item= O=Cc1c(O)cccc1OC[C@@H]1COCCN1C(=O)c1cccnc1CCO
Response: 24 h

---

- assay: MAD study in healthy volunteers: whole blood and plasma PK
- Type: in vivo, human
- assay_setup: human; HV MAD Day 14, 25 mg QD maintenance (loading 200 mg x 3 days); whole blood
reported_endpoint: Cmax (µg/mL)
Hi! Could you send only the number? It should be in µg/mL, unit omitted.

Query: Could you tell me which Cmax is on file for O=Cc1c(O)cccc1OC[C@@H]1COCCN1C(=O)c1cccnc1CCO ?
Response: 141

---

- assay: SAD study in healthy volunteers: PK in plasma, whole blood, red blood cells
- Type: in vivo, human
- assay_setup: human, plasma, po, 1400 mg, HV single oral 1400 mg (Cohort 7); plasma; geometric mean; read-out: t1/2 (converted)
reported_endpoint: half-life (days)
Output spec: scalar in days, unitless text.

Query: # half-life lookup, item O=Cc1c(O)cccc1OC[C@@H]1COCCN1C(=O)c1cccnc1CCO [Compound I]
Response: 21.4
